read-out: Interferon-gamma inducible Protein 10 (IP10), CXCL10 (gene 3627); test: BSK_KF3CT_IP10: BioMAP Diversity Plus: KF3CT Assay for Interferon-gamma inducible Protein 10 (IP10) Biomarker Activity (AID 2283068); conditions: primary human keratinocytes with fibroblasts; actives raise or lower the signal
Activity calls are given as the source filed them. Rule for the calls: active = hit-call score of the fitted dose curve at least 0.9, where 1 is the maximum; inactive = score below 0.9.
Hi there, use one of these labels in your reply, thanks! Y for active, N for inactive

Recorded results for 10 compounds are shown here.
[
  {
    "compound": "C=C(C)[C@H]1CC=C(C)C(=O)C1",
    "label": "N"
  },
  {
    "compound": "CN(C)C(=O)Nc1ccc(Oc2ccc(Cl)cc2)cc1",
    "label": "N"
  },
  {
    "compound": "CCC(C)c1cc([N+](=O)[O-])cc([N+](=O)[O-])c1OC(=O)OC(C)C (stereo unspecified)",
    "label": "Y"
  },
  {
    "compound": "COc1ccc(OC)c(N=Nc2c(O)ccc3ccccc23)c1",
    "label": "N"
  },
  {
    "compound": "CS(=O)(=O)OCCCCOS(C)(=O)=O",
    "label": "N"
  },
  {
    "compound": "c1ccc(Oc2ccccc2)cc1",
    "label": "Y"
  },
  {
    "compound": "C=CC(C)(O)CCC=C(C)C (stereo unspecified)",
    "label": "N"
  },
  {
    "compound": "CCCCCCCCCCCCCCCC(=O)OC/C=C(C)/C=C/C=C(C)/C=C/C1=C(C)CCCC1(C)C",
    "label": "N"
  },
  {
    "compound": "CCCCCC(C=O)=Cc1ccccc1",
    "label": "Y"
  },
  {
    "compound": "CC(C=O)Cc1ccc(C(C)(C)C)cc1 (stereo unspecified)",
    "label": "N"
  }
]

Which result was noted for this compound in the test: CC(C)(C)CC(C)(C)c1ccc(OCCOCC[N+](C)(C)Cc2ccccc2)cc1
Y

* * *

experiment: ATG_MRE_CIS: Attagene CIS-FACTORIAL HepG2 Assay for human Metal Responsive Element (MRE) (AID 2282954); details: HepG2 MRE cis-reporter transcription, Attagene multiplex; actives raise or lower the signal
Active and inactive are the calls of the source. The calls were made as follows: active = hit-call score of the fitted dose curve at least 0.9, where 1 is the maximum; inactive = score below 0.9.
Thanks in advance; please answer with one of these: y = active, n = inactive

Here are 2 compounds together with their reported answers.
[
  {
    "compound": "COc1ccccc1[N+](=O)[O-]",
    "label": "n"
  },
  {
    "compound": "N[C@@H](Cc1cc(I)c(Oc2cc(I)c(O)c(I)c2)c(I)c1)C(=O)O",
    "label": "y"
  }
]

Hi, do you know how CCCCCCCCCCCCCCCC(=O)OC/C=C(C)/C=C/C=C(C)/C=C/C1=C(C)CCCC1(C)C came out in this test?
n

Recorded test outcome, item c1ccc(CCc2ccccc2)cc1
n

* * *

Molecular target: Aryl hydrocarbon receptor (Homo sapiens) (UniProt P35869)
Sequence (P35869 whole entry, looked up): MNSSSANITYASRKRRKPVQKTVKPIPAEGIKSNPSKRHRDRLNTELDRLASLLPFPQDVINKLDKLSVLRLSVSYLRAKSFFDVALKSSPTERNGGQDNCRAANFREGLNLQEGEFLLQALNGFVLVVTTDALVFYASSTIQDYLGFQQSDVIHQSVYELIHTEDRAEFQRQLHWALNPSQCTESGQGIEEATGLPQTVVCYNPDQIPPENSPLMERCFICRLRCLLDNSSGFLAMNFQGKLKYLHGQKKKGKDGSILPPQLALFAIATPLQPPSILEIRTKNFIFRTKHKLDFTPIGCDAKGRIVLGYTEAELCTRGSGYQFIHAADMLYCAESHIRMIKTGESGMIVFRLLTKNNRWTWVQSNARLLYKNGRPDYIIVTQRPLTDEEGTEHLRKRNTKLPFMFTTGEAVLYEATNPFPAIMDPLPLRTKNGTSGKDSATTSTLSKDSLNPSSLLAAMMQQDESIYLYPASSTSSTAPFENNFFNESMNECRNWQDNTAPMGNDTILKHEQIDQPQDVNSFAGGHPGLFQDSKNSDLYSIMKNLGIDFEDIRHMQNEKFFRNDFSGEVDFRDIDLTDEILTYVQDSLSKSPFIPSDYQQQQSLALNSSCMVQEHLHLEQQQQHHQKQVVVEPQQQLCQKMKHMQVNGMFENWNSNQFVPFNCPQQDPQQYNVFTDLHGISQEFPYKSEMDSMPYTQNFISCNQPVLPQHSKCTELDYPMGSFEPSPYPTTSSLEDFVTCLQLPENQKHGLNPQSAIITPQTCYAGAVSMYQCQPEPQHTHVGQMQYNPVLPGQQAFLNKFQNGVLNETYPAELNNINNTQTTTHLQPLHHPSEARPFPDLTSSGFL
Test: ATG_Ahr_CIS: Attagene CIS-FACTORIAL HepG2 Assay for human Aryl Hydrocarbon Receptor (Ahr) (AID 2282930)
Settings: HepG2 AhR cis-factorial reporter transcription; actives raise or lower the signal
Experimental: ATG_CIS is a cell-based, multiplexed-readout assay that uses HepG2, a human liver cell line, with measurements taken at 24 hours after chemical dosing in a 24-well plate.ATG_Ahr_CIS is one of 52 assay component(s) measured or calculated from the ATG_CIS assay. […] This assay endpoint, ATG_Ahr_CIS, was analyzed with bidirectional fitting relative to DMSO as the negative control and baseline of activity. […]
Active and inactive are the calls of the source. Rule for the calls: active = hit-call score of the fitted dose curve at least 0.9, where 1 is the maximum; inactive = score below 0.9.
Please reply with one of these outcomes: Y for active, N for inactive

For NC1CCCCC1N (centres undefined) , which call appears in the assay record?
N

How did this test come out for CCCCCCCCCC(=O)OC ?
Y

What was the test verdict on COC(=O)c1ccc(OC)cc1 ?
N

Record request — test call for N#Cc1ccc(CC(=O)c2cccc(C(F)(F)F)c2)cc1
N

What call does the record list for CCC(=O)O[C@@H]1C[C@H]2CC[C@]1(C)C2(C)C ?
N

// outcome(item) with item = CCCCCCCCCCCCCCCC(=O)OC/C=C(C)/C=C/C=C(C)/C=C/C1=C(C)CCCC1(C)C
N
